Tested on: SK-MEL-28 melanoma
Measurement Notes: NCI tumour cell line growth inhibition, 48 h
Measure: TGI

Look up TGI: Cc1ccc(O)c(C(c2cc(C)ccc2O)c2cc([N+](=O)[O-])ccc2O)c1
39.6 µM

Look up TGI: O=C(CCl)Nc1ccc(Cc2ccc(NC(=O)CCl)cc2)cc1
6.06 µM

Look up TGI: COc1ccc(C(Nc2ccccn2)c2cc(C(C)(C)C)cc(C(C)(C)C)c2O)cc1 (centres undefined)
> 100 µM

Look up TGI: Cc1nn(-c2ccccc2)c2nc(C)n(-c3ccc(Br)cc3)c(=O)c12
> 100 µM

Look up TGI: CNC(=O)NCCN1N=C(C)/C(=C\c2ccccc2)CC1=O
> 100 µM

Look up TGI: N[C@H]1CCN(c2c(F)cc3c(=O)c(C(=O)O)cn4c3c2Oc2c-4ccc3c2ccc2ccccc23)C1
> 100 µM

Look up TGI: CC(=N\O)/C(C)=N/O.CC(=N\O)/C(C)=N/O.[Fe].[NH2-].c1c[nH]cn1
> 100 µM

Look up TGI: O=C(O)CCC(NC(=O)c1ccc(Oc2nc3ccccc3nc2-c2ccccc2)cc1)C(=O)O (centres undefined)
> 100 µM

Look up TGI: C[C@]12CC[C@H](O)CC1=CC[C@@H]1[C@@H]2CC[C@]2(C)NC(=O)/C(=C\c3ccccc3)C[C@@H]12
32 µM

---

Tested on: HOP-18 NSCLC
Measurement Notes: NCI tumour cell line growth inhibition, 48 h
Measure: TGI

Look up TGI: C/C(=N/N)c1sc(-c2nc(C)c(/C(C)=N\N)s2)nc1C
> 100 µM

Look up TGI: CSc1cc(C(C)(C)C)ccc1C(O)c1ccc(C(C)(C)C)cc1SC
34 µM

Look up TGI: CCc1cccc(NC(=O)c2cc(/C=C/c3ccccc3)[nH]c(=S)n2)c1
> 100 µM

Look up TGI: CC(=O)OCC1=CC2CCC3C(C)(CCC[C@]3(C)COC(C)=O)C23CC[C@H]1C3 (stereo not given in full)
> 100 µM

Look up TGI: COc1cc2cnc3c4cc(OC)c(OC(C)C)cc4ccc3c2cc1OC
> 100 µM

---

System: NCI-H522 lung
Measurement Notes: NCI tumour cell line growth inhibition, 48 h
Assign TGI to each entry below.
Just the number in µM, nothing appended.

Item: O=C1c2ccccc2C(=O)c2sc(Nc3ccc([N+](=O)[O-])cc3)nc21 Test system: NCI-H522 lung Read-out: TGI Value: ?
6.35

Item: COc1ccc(C(Nc2ccccn2)c2cc(C(C)(C)C)cc(C(C)(C)C)c2O)cc1 (stereo unspecified) Test system: NCI-H522 lung Read-out: TGI Value: ?
17.7

Item: NCCCNc1nc2ccccc2c2c(=O)c3cc(F)cc(Cl)c3sc12 Test system: NCI-H522 lung Read-out: TGI Value: ?
3.68

Item: Nc1cc(N)c2nc(-c3ccccc3)c(NCc3ccc(Cl)c(Cl)c3)nc2c1 Test system: NCI-H522 lung Read-out: TGI Value: ?
4.91

Item: CCOC(=O)CCSC1=CC(=O)c2nc3ccccc3c3ccnc1c23 Test system: NCI-H522 lung Read-out: TGI Value: ?
43

Item: Cc1ccc2c(c1)C(O)(c1ccccc1)CCS2 (stereo unspecified) Test system: NCI-H522 lung Read-out: TGI Value: ?
44.6

Item: Oc1ccc(/C=N/NC(=S)Nc2cccnc2)nc1 Test system: NCI-H522 lung Read-out: TGI Value: ?
21.7

Item: CCOC(=O)CCc1ccc(NC(=O)/C=C/c2ccc([N+](=O)[O-])o2)cc1 Test system: NCI-H522 lung Read-out: TGI Value: ?
0.548

Item: O=c1[nH]c(=O)n(C2OC(CO)C(O)C2O)cc1F (stereo unspecified) Test system: NCI-H522 lung Read-out: TGI Value: ?
30.6

Item: CC(=O)c1cccc(Nc2nc3ccccc3c3[nH]c4ccccc4c23)c1 Test system: NCI-H522 lung Read-out: TGI Value: ?
8.11

---

Test system: UO-31 renal
Measurement Notes: NCI tumour cell line growth inhibition, 48 h; in the data active means GI50 below about 0.43 µM; inactive means the rest
Valid outcomes are listed here; reply with one: Yes = active, No = inactive

Please share the test call associated with CN(C)C/C=C/C(=O)Nc1cc2c(Nc3cccc(Cl)c3F)ncnc2cc1OCCOC(F)F .
Yes

Please share the test call associated with COc1cccc(-c2nn(-c3ccccc3)cc2-c2ccnc(NCCCNS(=O)(=O)c3ccc(C(F)(F)F)cc3)c2)c1 .
No

Please share the test call associated with C=C1C(=O)O[C@H]2[C@H]1CC/C(COC(=O)/C=C\C(=O)NCc1ccc(Cn3c(=O)sn(-c4ccc(Cl)cc4)c3=O)cc1)=C\CC[C@@]1(C)O[C@@H]21 .
No

Please share the test call associated with C(=C\c1ccc(OCC2CO2)cc1)/C1=NCOC1 (centres undefined) .
No

---

Tested on: MDA-MB-435
Measurement Notes: NCI tumour cell line growth inhibition, 48 h
Measure: TGI

Look up TGI: O=c1[nH]c2ccccc2n1C1CCN(CCOc2ccccc2)CC1
72.3 µM

Look up TGI: C[C@H]1S[C@H](c2c(F)cccc2F)n2c1nc1ccccc12
> 100 µM

Look up TGI: CC(C)(C)OC(=O)N1Cc2cc3ccccc3nc2C1CO (configuration not stated)
> 100 µM

Look up TGI: OCC1OC(n2cnc3c(NCc4ccccc4O)ncnc32)C(O)C1O (configuration not stated)
3.2 µM

Look up TGI: CCCC(C(=O)Nc1cccc2[nH]cnc12)C(=O)OCC (configuration not stated)
> 100 µM

Look up TGI: c1ccc2c(c1)[nH]c1c3ccccc3sc21
> 100 µM

Look up TGI: N/C(=N/S(=O)(=O)c1cc(C(=O)Nc2ccc(F)cc2)c(Cl)cc1SCc1ccccc1)Nc1ccccc1O
3.19 µM

Look up TGI: COc1cc(C(=O)OC2CC34CCNC35CC(OC5(OC)C2O)c2cc3c(cc24)OCO3)ccc1O (configuration not stated)
> 100 µM

Look up TGI: Nn1c(CCCCCCCCc2n[nH]c(=S)n2N)n[nH]c1=S
> 100 µM

Look up TGI: CC(C)(C)NC(=S)N/N=C/c1ccccn1
> 100 µM

Look up TGI: N#CC(C#N)=Cn1c(=S)[nH]c2ccc([N+](=O)[O-])cc21
> 100 µM

Look up TGI: COc1cc(/C=N/n2c(C)n[nH]c2=O)cc(OC)c1OC
> 100 µM

Look up TGI: C=C1C(O)C2CC(C)(C)C(=O)C2=C(CC(C)C)C12CC2 (configuration not stated)
> 100 µM

Look up TGI: CCOC(=O)c1ccc(NC(=O)c2cccc(NC3=C(Cl)C(=O)N(Cc4ccccc4)C3=O)c2)cc1
> 100 µM

Look up TGI: O=C1NC(N2CCCCC2)=N/C1=C\c1ccco1
> 100 µM

Look up TGI: C1=C\CCCCN2CC[C@H]3[C@H](CCCC/C=C\CCCN4C[C@@H](CCCCC/1)C[C@@H]3C4)C2
3.26 µM

Look up TGI: C[C@@H](Oc1cc(-c2cnn(C3CCNCC3)c2)cnc1N)c1c(Cl)cc(F)cc1Cl
9.42 µM

Look up TGI: COC(=O)c1cc2c(cc1C(=O)OC)[C@@]1(C)CCCC(C)(C)C1CC2 (some centres not stated)
> 100 µM

Look up TGI: Cc1cn2c(/C=C3\C(=O)N(C)c4ccc(Cl)cc43)c(C)nc2s1
5.66 µM

Look up TGI: O=C(CC1Sc2ccccc2NC1=O)NNc1ccc(F)cc1 (configuration not stated)
> 100 µM

Look up TGI: CC(=O)N1N=C(c2ccc3ccccc3c2O)CC1c1ccc(N(C)C)cc1 (configuration not stated)
> 100 µM

Look up TGI: Nc1ncc2c(n1)-c1ccccc1OC2N1CCOCC1 (configuration not stated)
> 100 µM

---

Assign TGI to each entry below.
System: CAKI-1 renal
Measurement Notes: NCI tumour cell line growth inhibition, 48 h

Look up TGI: CC(=N\O)/C(C)=N/O.CC(=N\O)/C(C)=N/O.[Fe].[NH2-].c1c[nH]cn1
> 100 µM

Look up TGI: O=C(COc1cccc(/C=C2\Oc3ccc4ccccc4c3C2=O)c1)c1ccc([N+](=O)[O-])cc1
> 100 µM

Look up TGI: OCC1OC(n2cnc3c(NCc4ccco4)ncnc32)C(O)C1O (configuration not stated)
4.33 µM

Look up TGI: COc1cc(C(=O)OC2CC34CCNC35CC(OC5(OC)C2O)c2cc3c(cc24)OCO3)ccc1O (configuration not stated)
> 100 µM

Look up TGI: COc1ccc2nc3ccccc3c(NCc3ccccc3)c2c1
6.82 µM

Look up TGI: O=c1[nH]c(=O)n(C2OC(CO)C(O)C2O)cc1F (configuration not stated)
18.1 µM

Look up TGI: CC1(C)CC[C@]2(CO)CC[C@]3(C)C(=CC[C@@H]4[C@@]5(C)CCNCC(C)(C)[C@@H]5CC[C@]43C)[C@@H]2C1
11.9 µM

Look up TGI: CCOc1nc2sc3c(c2c(=O)n1CCSSCCn1c(OCC)nc2sc4c(c2c1=O)CCCC4)CCCC3
> 100 µM

Look up TGI: Oc1ccc(/C=N/NC(=S)Nc2cccnc2)nc1
> 100 µM

Look up TGI: Cn1c(=O)[nH]c2c(c1=O)C(=O)CN2
> 100 µM

Look up TGI: CC1(C)CCC[C@@]2(C)C1CC[C@@]1(CO1)[C@@H]2/C=C\C(C=O)CC=O (some centres not stated)
> 100 µM

Look up TGI: Cn1cc(-c2nc(-c3cn(C)c4ncccc34)cs2)c2ccccc21
> 100 µM

Look up TGI: O=C1CCc2ccc(O)c(c2)Oc2ccc(cc2)[C@@H]2O[C@@H]2CO1
> 100 µM

Look up TGI: O=C1c2ccccc2C(=O)c2sc(Nc3ccc([N+](=O)[O-])cc3)nc21
12 µM

Look up TGI: Cc1ccc(S(=O)(=O)NNC(=O)Nc2ccc([N+](=O)[O-])cc2)cc1
> 100 µM

Look up TGI: CCOC(=O)c1ccn2c(c1)c(C#N)c1nc3ccccc3nc12
> 100 µM

Look up TGI: N#CC(C#N)=C1CCC2C(=C(C#N)C#N)CCC12 (configuration not stated)
> 100 µM
